# Test system: JVM-3 (B-Cell Non-Hodgkin's Lymphoma)
# assay method text: Bliss excess, mean over the matrix (fraction); higher = more synergy
readout kind: Bliss excess
I'd appreciate a reply containing only the number, no unit.

Use the examples below as a reference point.
compound | measurement target | value observed
CCN(CCO)CCCOc1ccc2c(Nc3cc(CC(=O)Nc4cccc(F)c4)[nH]n3)ncnc2c1 [AZD2811] + O=C(c1cc(Cc2n[nH]c(=O)c3ccccc23)ccc1F)N1CCN(C(=O)C2CC2)CC1 [Olaparib] (first compound max 1 µM, 7x7, partner max 10 µM) | JVM-3 (B-Cell Non-Hodgkin's Lymphoma) | -0.0119
C[C@@H]1COCCN1c1cc(C2([S@](C)(=N)=O)CC2)nc(-c2ccnc3[nH]ccc23)n1 [AZD6738] + O=C(c1cc(Cc2n[nH]c(=O)c3ccccc23)ccc1F)N1CCN(C(=O)C2CC2)CC1 [Olaparib] (first compound max 10 µM, 7x7, partner max 10 µM) | JVM-3 (B-Cell Non-Hodgkin's Lymphoma) | -0.0937

Next compound, Bliss excess to be filled in.
Prompt line: Please report the measured Bliss excess for CN(CCO)CC[C@H](CSc1ccccc1)Nc1ccc(S(=O)(=O)NC(=O)c2ccc(N3CCC([C@@H](O)c4ccccc4-c4ccc(Cl)cc4)CC3)cc2)cc1S(=O)(=O)C(F)(F)F [AZD4320] + Cn1cnc2c(F)c(Nc3ccc(Br)cc3Cl)c(C(=O)NOCCO)cc21 [Selumetinib] (first compound max 1 µM, 7x7, partner max 3 µM)
Response line: -0.0225

---

# Tested on: TK10 (Kidney Carcinoma)
# assay method text: Bliss excess, mean over the matrix (fraction); higher = more synergy
readout kind: Bliss excess
I'd appreciate a reply containing only the number, no unit.

compound | measurement target | value observed
C=CCn1c(=O)c2cnc(Nc3ccc(N4CCN(C)CC4)cc3)nc2n1-c1cccc(C(C)(C)O)n1 [AZD1775] + Nc1ccn([C@@H]2O[C@H](CO)[C@@H](O)C2(F)F)c(=O)n1 [Gemcitabine] (first compound max 1 µM, partner max 0.3 µM) | TK10 (Kidney Carcinoma) | -0.0299

Next compound, Bliss excess to be filled in.
Prompt line: Please report the measured Bliss excess for Cc1c2c(nn1C)CSCc1cc(n(C)n1)CSc1cc(c3ccccc3c1)OCCCc1c(C(=O)O)n(C)c3c-2c(Cl)ccc13 [AZD5991] + C1CN(CCC1(C(=O)N[C@@H](CCO)C2=CC=C(C=C2)Cl)N)C3=NC=NC4=C3C=CN4 [Capivasertib] (first compound max 1 µM, 7x7, partner max 3 µM)
Response line: -0.031

---

# Tested on: YH-13 (Glioblastoma)
# assay method text: Bliss excess, mean over the matrix (fraction); higher = more synergy
readout kind: Bliss excess
I'd appreciate a reply containing only the number, no unit.

Use the examples below as a reference point.
compound | measurement target | Bliss excess
Cc1c2c(nn1C)CSCc1cc(n(C)n1)CSc1cc(c3ccccc3c1)OCCCc1c(C(=O)O)n(C)c3c-2c(Cl)ccc13 [AZD5991] + C1CN(CCC1(C(=O)N[C@@H](CCO)C2=CC=C(C=C2)Cl)N)C3=NC=NC4=C3C=CN4 [Capivasertib] (first compound max 1 µM, 7x7, partner max 3 µM) | YH-13 (Glioblastoma) | -0.0229
NC1(C(=O)N[C@@H](CCO)c2ccc(Cl)cc2)CCN(c2ncnc3[nH]ccc23)CC1 [Capivasertib] + CC(C)n1c(=O)n(C)c2cnc3cc(F)c(-c4ccc(OCCCN5CCCCC5)nc4)cc3c21 [AZD1390] (first compound max 10 µM, 7x7, partner max 0.3 µM) | YH-13 (Glioblastoma) | -0.0372
Cc1c2c(nn1C)CSCc1cc(n(C)n1)CSc1cc(c3ccccc3c1)OCCCc1c(C(=O)O)n(C)c3c-2c(Cl)ccc13 [AZD5991] + Cc1cc2ncnn2cc1Nc1ncc2c(n1)n(C1CCOCC1)c(=O)n2C [AZD7648] (first compound max 1 µM, 7x7, partner max 10 µM) | YH-13 (Glioblastoma) | -0.091

Next compound, Bliss excess to be filled in.
Prompt line: Please report the measured Bliss excess for CC(=O)c1c(C)c2cnc(Nc3ccc(N4CCNCC4)cn3)nc2n(C2CCCC2)c1=O [Palbociclib] + Cc1c2c(nn1C)CSCc1cc(n(C)n1)CSc1cc(c3ccccc3c1)OCCCc1c(C(=O)O)n(C)c3c-2c(Cl)ccc13 [AZD5991] (first compound max 10 µM, 7x7, partner max 1 µM)
Response line: -0.003

---

Entries and their measured combination Emax follow.
# System: KMOE-2 (Acute Myeloid Leukemia)
# assay method text: combination Emax (second highest fraction inhibited in the dose matrix, 72 h); higher = more inhibition; extreme values may be limits of the assay
I'd appreciate a reply containing only the number, no unit.

compound | combination Emax
Cc1cc2ncnn2cc1Nc1ncc2c(n1)n(C1CCOCC1)c(=O)n2C [AZD7648] + C[C@@H]1COCCN1C2=NC(=NC(=C2)C3(CC3)[S@](=N)(=O)C)C4=C5C=CNC5=NC=C4 [AZD6738] (first compound max 10 µM, 7x7, partner max 10 µM) | 0.586
CC1(C)CCC(CN2CCN(c3ccc(C(=O)NS(=O)(=O)c4ccc(NCC5CCOCC5)c([N+](=O)[O-])c4)c(Oc4cnc5[nH]ccc5c4)c3)CC2)=C(c2ccc(Cl)cc2)C1 [Venetoclax] + CCN(CCO)CCCOc1ccc2c(Nc3cc(CC(=O)Nc4cccc(F)c4)[nH]n3)ncnc2c1 [AZD2811] (first compound max 1 µM, 7x7, partner max 1 µM) | 0.293

Next compound, combination Emax to be filled in.
Prompt line: # return combination Emax of CCN(CCO)CCCOc1ccc2c(Nc3cc(CC(=O)Nc4cccc(F)c4)[nH]n3)ncnc2c1 [AZD2811] + C[C@@H]1COCCN1C2=NC(=NC(=C2)C3(CC3)[S@](=N)(=O)C)C4=C5C=CNC5=NC=C4 [AZD6738] (first compound max 1 µM, 7x7, partner max 10 µM) (system: KMOE-2 (Acute Myeloid Leukemia))
Response line: 0.615

---

Entries and their measured Bliss excess follow.
# System: Hs-766T (Pancreatic Carcinoma)
# assay method text: Bliss excess, mean over the matrix (fraction); higher = more synergy
I'd appreciate a reply containing only the number, no unit.

Use the examples below as a reference point.
molecule | measurement target | value observed
COc1nnc2ccc(N3CCC(c4ccc(OCCN5CCN(C)C(=O)[C@H]5C)cc4)CC3)nn12 [AZD5153] + CCN(CCO)CCCOc1ccc2c(Nc3cc(CC(=O)Nc4cccc(F)c4)[nH]n3)ncnc2c1 [AZD2811] (first compound max 1 µM, 7x7, partner max 1 µM) | Hs-766T (Pancreatic Carcinoma) | -0.0263
Cn1cnc2c(F)c(Nc3ccc(Br)cc3Cl)c(C(=O)NOCCO)cc21 [Selumetinib] + C=CCn1c(=O)c2cnc(Nc3ccc(N4CCN(C)CC4)cc3)nc2n1-c1cccc(C(C)(C)O)n1 [AZD1775] (first compound max 10 µM, partner max 1 µM) | Hs-766T (Pancreatic Carcinoma) | -0.0559
C[C@@H](c1ccc2nccn2c1)n1nnc2ncc(-c3cnn(C)c3)nc21 [Savolitinib] + CC1(C)CCC(CN2CCN(c3ccc(C(=O)NS(=O)(=O)c4ccc(NCC5CCOCC5)c([N+](=O)[O-])c4)c(Oc4cnc5[nH]ccc5c4)c3)CC2)=C(c2ccc(Cl)cc2)C1 [Venetoclax] (first compound max 1 µM, 7x7, partner max 1 µM) | Hs-766T (Pancreatic Carcinoma) | -0.0681
C=CCn1c(=O)c2cnc(Nc3ccc(N4CCN(C)CC4)cc3)nc2n1-c1cccc(C(C)(C)O)n1 [AZD1775] + Nc1ccn([C@@H]2O[C@H](CO)[C@@H](O)C2(F)F)c(=O)n1 [Gemcitabine] (first compound max 1 µM, partner max 0.3 µM) | Hs-766T (Pancreatic Carcinoma) | -0.0742

Next molecule, Bliss excess to be filled in.
Prompt line: Please report the measured Bliss excess for N#Cc1cnc(Nc2cc(NC[C@H]3CNCCO3)c(C(F)(F)F)cn2)cn1 [SRA737] + Nc1ccn([C@@H]2O[C@H](CO)[C@@H](O)C2(F)F)c(=O)n1 [Gemcitabine] (first compound max 10 µM, 7x7, partner max 0.3 µM)
Response line: 0.003

---

# Tested on: NCI-H1915 (Non-Small Cell Lung Carcinoma)
# assay method text: combination Emax (second highest fraction inhibited in the dose matrix, 72 h); higher = more inhibition; extreme values may be limits of the assay
We use 0.6 as the dividing line for combination Emax: on or above the line is Yes, below is No.

Here's what some known entries look like.
molecule | measurement target | class
CC1(C)CCC(CN2CCN(c3ccc(C(=O)NS(=O)(=O)c4ccc(NCC5CCOCC5)c([N+](=O)[O-])c4)c(Oc4cnc5[nH]ccc5c4)c3)CC2)=C(c2ccc(Cl)cc2)C1 [Venetoclax] + CN(C)CCCOc1ccc(-c2ccc3ncc4c(c3c2)n(C2CCOCC2)c(=O)n4C)cn1 [AZD0156] (first compound max 1 µM, 7x7, partner max 1 µM) | NCI-H1915 (Non-Small Cell Lung Carcinoma) | No
COc1cccc(OCCCN)c1-c1cc(Nc2cnc(C#N)cn2)n[nH]1 [Prexasertib] + O=C(c1cc(Cc2n[nH]c(=O)c3ccccc23)ccc1F)N1CCN(C(=O)C2CC2)CC1 [Olaparib] (first compound max 1 µM, 7x7, partner max 10 µM) | NCI-H1915 (Non-Small Cell Lung Carcinoma) | Yes
CN(C)CCCOc1ccc(-c2ccc3ncc4c(c3c2)n(C2CCOCC2)c(=O)n4C)cn1 [AZD0156] + C=CCn1c(=O)c2cnc(Nc3ccc(N4CCN(C)CC4)cc3)nc2n1-c1cccc(C(C)(C)O)n1 [AZD1775] (first compound max 1 µM, partner max 1 µM) | NCI-H1915 (Non-Small Cell Lung Carcinoma) | No
Cn1cnc2c(F)c(Nc3ccc(Br)cc3Cl)c(C(=O)NOCCO)cc21 [Selumetinib] + CC(C)n1c(=O)n(C)c2cnc3cc(F)c(-c4ccc(OCCCN5CCCCC5)nc4)cc3c21 [AZD1390] (first compound max 10 µM, 7x7, partner max 0.3 µM) | NCI-H1915 (Non-Small Cell Lung Carcinoma) | Yes
Cc1c2c(nn1C)CSCc1cc(n(C)n1)CSc1cc(c3ccccc3c1)OCCCc1c(C(=O)O)n(C)c3c-2c(Cl)ccc13 [AZD5991] + CC1(C)CCC(CN2CCN(c3ccc(C(=O)NS(=O)(=O)c4ccc(NCC5CCOCC5)c([N+](=O)[O-])c4)c(Oc4cnc5[nH]ccc5c4)c3)CC2)=C(c2ccc(Cl)cc2)C1 [Venetoclax] (first compound max 1 µM, 7x7, partner max 1 µM) | NCI-H1915 (Non-Small Cell Lung Carcinoma) | No

Please turn your attention to the following entry.
Prompt line: Given NC1(C(=O)N[C@@H](CCO)c2ccc(Cl)cc2)CCN(c2ncnc3[nH]ccc23)CC1 [Capivasertib] + Cn1cnc2c(F)c(Nc3ccc(Br)cc3Cl)c(C(=O)NOCCO)cc21 [Selumetinib] (first compound max 10 µM, 7x7, partner max 10 µM) , state whether its combination Emax is at least 0.6.
Response line: Yes
